Assay type: in vivo
Condition parameters: human, tumor / plasma (unbound), po, 400 mg, unbound tumor-to-plasma concentration ratio (Kp,uu), range, 20 patients with glioblastoma, single oral dose 100, 200 or 400 mg
Property label: Kp uu

# Kp uu lookup, item C=CCn1c(=O)c2cnc(Nc3ccc(N4CCN(C)CC4)cc3)nc2n1-c1cccc(C(C)(C)O)n1
1.3 to 24.4

====

Assay type: in vivo
Condition parameters: human, tumor / plasma (total), po, 400 mg, total tumor-to-plasma concentration ratio (Kp), range, 20 patients with glioblastoma, single oral dose 100, 200 or 400 mg
Property label: Kp

What measured Kp goes with C=CCn1c(=O)c2cnc(Nc3ccc(N4CCN(C)CC4)cc3)nc2n1-c1cccc(C(C)(C)O)n1 ?
3.8 to 40.4
